SYSTEM TESTED: ORF1p WT (Homo sapiens, UniProt Q9UN81 1-338)
Sequence (Q9UN81 other isoform, or with tags, fused parts or gaps): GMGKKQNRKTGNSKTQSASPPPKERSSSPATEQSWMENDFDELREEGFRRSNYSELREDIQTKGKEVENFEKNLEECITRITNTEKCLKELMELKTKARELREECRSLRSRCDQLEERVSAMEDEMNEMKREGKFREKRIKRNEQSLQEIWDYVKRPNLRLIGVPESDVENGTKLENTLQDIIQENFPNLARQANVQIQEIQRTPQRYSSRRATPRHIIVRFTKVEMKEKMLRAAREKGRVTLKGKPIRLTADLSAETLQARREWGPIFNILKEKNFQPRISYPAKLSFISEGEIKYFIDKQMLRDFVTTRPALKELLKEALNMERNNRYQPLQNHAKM
ASSAY SUMMARY: fluorescence anisotropy; 50 mM KCl; 20 mM Hepes pH 7.5, 50 mM KCl (150 or 300 mM in Fig. S1D rows), 1 mM MgCl2, 1 mM DTT; 1 nM 6-FAM oligo; temperature not stated
APPLIED CONDITIONS: protein: recombinant; tags: tag removed, N-terminal G left; chain copies: 3; label: 5' 6-FAM on strand 1 (anisotropy); blunt
MEASURED PARAMETER: Kd (nM)
The answer is to be given in nM; state only the numeric part.

Request: Name the recorded Kd for 30 bp dsDNA (dsDNA) DNA 1: ACCATCATCAAAGACCAAAAGTAGATAAAA DNA 2: TTTTATCTACTTTTGGTCTTTGATGATGGT .
Response: 18.9
